Target: T1, S100A4Δ13 (C-terminal deletion mutant, residues 1-88) (human, UniProt P26447 1-88)
T1 construct: human S100A4, residues 1-88 (F89-K101 deleted); also called Δ13 mutant; Δ13 S100A4
T1 sequence (P26447 1-88, stated change not applied): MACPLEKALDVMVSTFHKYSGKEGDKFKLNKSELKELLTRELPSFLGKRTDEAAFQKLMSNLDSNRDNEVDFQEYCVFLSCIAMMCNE
Experiment: ITC; 75 µM S100A4Δ13 in the cell titrated with MPT at 25°C (298 K) in the presence of 1 mM CaCl2
Settings: both partners purified
measurement.label: Kd (nM)
Answers are plain numbers, in nM.

Challenge: Which value of Kd has been reported for YRKLQRELEDATETADAMNREVSSLKNKLRRGDLPFVVPRRMARK (extra N-terminal tyrosine, printed as 'Tyr-Arg1894-Lys1937'; non-muscle myosin IIA (NMIIA) heavy chain, residues Arg1894-Lys1937; also called MPT peptide; myosin IIA fragment; not shown: His10, N-terminal, cleaved; ubiquitin, N-terminal, cleaved) [NMIIA fragment MPT (Tyr-Arg1894-Lys1937)] in the records?
Response given: 14.7
